System: SK-OV-3
Assay: Cytotoxicity against human SKOV3 cells assessed as growth inhibition at 10 uM after 48 hrs by sulphorhodamine B assay
Assay type: functional
Conditions: SK-OV-3, 48 h, read-out: GI
value_type: inhibition of growth at 10 µM

Below, 4 compounds whose answers are already recorded.
>  <compound>
CC1CCCc2c1nc1[nH]c(=S)nc(N)c1c2-c1ccc(Cl)cc1 (stereo not given)

>  <inhibition of growth at 10 µM>
< 10%

$$$$
>  <compound>
CCSc1nc(N)c2c(-c3ccc(OC)cc3)c3c(nc2n1)C(C)CCC3 (stereo not given)

>  <inhibition of growth at 10 µM>
< 10%

$$$$
>  <compound>
CC1CCCc2c1nc(NC(=S)NC(=O)c1ccccc1)c(C#N)c2-c1ccc(Cl)cc1 (stereo not given)

>  <inhibition of growth at 10 µM>
20%

$$$$
>  <compound>
CC1CCCc2c1nc(N)c(C#N)c2-c1ccc(Cl)cc1 (stereo not given)

>  <inhibition of growth at 10 µM>
< 10%

$$$$

Ask | Endpoint output: inhibition of growth at 10 µM of CC1CCCc2c1nc1[nH]c(=S)n(-c3ccccc3)c(=N)c1c2-c1ccc(Cl)cc1 (stereo not given) . Value?
Reply | 10.4%

Every entry's value here was drawn from ChEMBL document CHEMBL2375313.
